Assay: protein stability index of a GFP-peptide fusion (yeast GPS) (PSI 1-4); higher = more stable; sorted into four equal gates, so the index is relative within each strain
Conditions: ubr1∆
Label rule, in plain words: protein stability index of 3 and up is TRUE, under 3 is FALSE.

residues	category
LNDPSLKIQFILSTTLD [SIN4]	FALSE
FLKHNGEEDAVDLLLEI [RPN1]	TRUE
SAAGMTAAIDSVVSQIE [FAS1]	FALSE
NAASQQPTPRSASNTAK [GAL11]	FALSE
LAEKVEKASRQQRKQKK [RPS24A]	TRUE
GKLKRCSRCGSVTRAGN [SIN4]	TRUE
TTIGDTTDKNTTDDKSM [BRN1]	TRUE
ASDMSDEDIITIFKYLT [CDC53]	TRUE
VDPIQSVKGKVVIDAFR [RPN11]	FALSE
VVEGVTFVVEQLIKQSI [SNU114]	FALSE
KPVYKGKKLTDEINTAQ [RET1]	TRUE

* * *

Each entry below carries its recorded protein stability index.
Assay: protein stability index of a GFP-peptide fusion (yeast GPS) (PSI 1-4); higher = more stable; sorted into four equal gates, so the index is relative within each strain
Conditions: pdr5∆

residues	protein stability index
DIYMHDVNSASKSESDS [RRP4]	3.48
EKTGKSASLKKIQQHNT [BRR2]	2.96
VDEEDENGTHNDEVNED [YCG1]	3.32
QLDSDANKLSKSHSTVS [ISW2]	2.85
ANVVDITNDWEQPCVDI [YJR042W/NUP85]	3.41
GSSGGVIRMVVLTAAGV [PRE3]	1.74
LNRLLRLIVDPNIADYI [PRP8]	1.93

* * *

// protein stability index lookup, one value per entry
Assay: protein stability index of a GFP-peptide fusion (yeast GPS) (PSI 1-4); higher = more stable; sorted into four equal gates, so the index is relative within each strain
Conditions: san1∆

residues	protein stability index
ARTAANSIYCPTQTVAE [RPN6]	1.42
ASGSINRKVLQALEKIG [RPS19A]	1.67
FVHSVKKFLRVRIFTKI [SRB4]	1.22
TPANNGENAAEKPDNSN [SNF2]	1.81
VGRQDPKKHLSETADET [RPN11]	3.51
QLEYKRGEIREIEQVCK [MED7]	2.2
NQKLALVIKSGKYTLGY [RPL30]	2.29
IVWRFISENTFPNGFKN [RPC34]	2.06
EAVDDVFQAKMMDMLKQ [RPN11]	2.02
LKDLMDLCDVVESKFTE [RPC19]	3.27
WQYYYYTLTEEGVEYLR [RPS10A]	2.74
LLLITHHSWSQSDLEII [ARP9]	1.76
IMRILKSNGLAPEIPED [RPS13]	1.9
LQGQMEKIMILLVPLAL [CSN12]	1.3
IEKTESVDKKVDSGEER [SWI3]	3.36

* * *

Assay: protein stability index of a GFP-peptide fusion (yeast GPS) (PSI 1-4); higher = more stable; sorted into four equal gates, so the index is relative within each strain
Conditions: ubr1∆
Quick list: protein stability index per entry.

residues	protein stability index
LREKEDKKNSSDPNNQS [YJL039C/NUP192]	3.33
ESNNKKYPIFTGESWVK [YDL088C/ASM4]	2.74
YGLGLIYAGFGRDTTDY [RPN2]	3.28
EVRILPRQRMEEVVSND [PRP8]	2.57
SDLINKDLVKNNVSFNA [FAS1]	2.26
LYQLFKTCIQGINSPLS [YJL039C/NUP192]	2.04
QFSYVDSSMTTVQENEL [AAR2]	2.95
PMTVKLVQLPKSAMDTF [POP3]	2.88
NVNNRFDNFLTEEELQA [BRN1]	2.63
LALSSNISRDFQSYIVS [COR1]	1.88
LTDLDSPSEFVDVAIPC [RPS0A]	2.56
PEQVYSLLLTNVIITGS [ARP7]	1.23
QLNKVVDQLFEKASVLY [RPN6]	2.43
NKFMSIFLKRKDFTNKN [SRB8]	2.58

These measurements were taken from the supplement of paper PMC9732359.
